Tested on: HT-29
Test name: Cytotoxicity against human HT-29 cells assessed as cell viability at 25 uM after 3 days by MTS assay
Type: functional
Protocol conditions: HT-29, 72 h, read-out: Activity
Values of viability at 25 µM strictly less than 20% map to MET, and values of at least 20% map to NOT MET.

Quick check: does C[C@@H]1O[C@@H](OCC#Cc2c(-c3ccccc3)oc3ccccc23)CC[C@@H]1N have viability at 25 µM under 20%? MET

Entry to check: C[C@@H]1O[C@@H](OCC#Cc2c(-c3ccccc3)oc3ccccc23)CC[C@@H]1NCc1ccc[nH]1 MET

Entry to check: C[C@@H]1O[C@@H](OCC#Cc2c(-c3ccccc3)oc3ccccc23)CC[C@@H]1NCc1ccc([N+](=O)[O-])cc1 NOT MET

Entry to check: COc1ccc(CN[C@H]2CC[C@H](OCC#Cc3c(-c4ccccc4)oc4ccccc34)O[C@H]2C)cc1 MET

Entry to check: C[C@@H]1O[C@@H](OCC#Cc2c(-c3ccccc3)oc3ccccc23)CC[C@@H]1NCc1ccc(O)cc1 MET

Entry to check: COc1cc(CN[C@H]2CC[C@H](OCC#Cc3c(-c4ccccc4)oc4ccccc34)O[C@H]2C)cc(OC)c1OC MET

Entry to check: C[C@@H]1O[C@@H](OCC#Cc2c(-c3ccccc3)oc3ccccc23)CC[C@@H]1NCc1ccco1 NOT MET

Entry to check: C[C@@H]1O[C@@H](OCC#Cc2c(-c3ccccc3)oc3ccccc23)CC[C@@H]1NCc1ccccn1 MET

Entry to check: Cc1ccc(CN[C@H]2CC[C@H](OCC#Cc3c(-c4ccccc4)oc4ccccc34)O[C@H]2C)cc1 NOT MET

Entry to check: C[C@@H]1O[C@@H](OCC#Cc2c(-c3ccccc3)oc3ccccc23)CC[C@@H]1NCc1ccccc1 NOT MET
